assay: Cytotoxicity CC50 in Huh-7; format: cell-based; settings: human; Huh-7 cells
Readout Kind: CC50

Previously resolved entries follow.
CCCOC(=O)C(C)NP(=O)(O)OC[C@@]1(N=[N+]=[N-])O[C@@H](n2ccc(=O)[nH]c2=O)[C@@H](C)[C@@H]1O (stereo partly drawn) [Compound I-30]
> 98.4 µM
CC(NP(=O)(OC[C@@]1(N=[N+]=[N-])O[C@@H](n2ccc(=O)[nH]c2=O)[C@@H](C)[C@@H]1O)Oc1ccccc1)C(=O)OC(C)(C)C (stereo partly drawn) [Compound I-31]
> 98.4 µM
C[C@@H]1[C@H](n2cc(I)c(=O)[nH]c2=O)O[C@@](COP(=O)(N[C@@H](C)C(=O)OCc2ccccc2)Oc2ccccc2)(N=[N+]=[N-])[C@H]1O (stereo partly drawn) [Compound I-25]
> 98.3 µM
CCC(NP(=O)(OC[C@@]1(N=[N+]=[N-])O[C@@H](n2ccc(=O)[nH]c2=O)[C@@H](C)[C@@H]1O)Oc1ccccc1)C(=O)OC(C)C (stereo partly drawn) [Compound I-34]
> 98.4 µM
CCCCOC(=O)C(C)(C)NP(=O)(OC[C@@]1(N=[N+]=[N-])O[C@@H](n2ccc(=O)[nH]c2=O)[C@@H](C)[C@@H]1O)Oc1ccccc1 (stereo partly drawn) [Compound I-13]
88.5 µM

Please examine the following record next.
**Q:** In one line, give reported CC50 of the entry COC(=O)C(C)NP(=O)(OC[C@@]1(N=[N+]=[N-])O[C@@H](n2ccc(=O)[nH]c2=O)[C@@H](C)[C@@H]1O)Oc1ccccc1 (stereo partly drawn) [Compound I-18] .
**A:** > 98.3 µM
